Data provenance is the FLAb antibody collection.

Experiment: patients with anti-drug antibodies; higher = more immunogenic
Would you kindly list patients with anti-drug antibodies for each of these proteins?
The reply should contain only the number, in %.

Param item = unnamed (protein) chain 1: QVQLVQSGAEVKKPGSSVKVSCKASGYTFGNYWMQWVRQAPGQGLEWMGAIYEGTGKTVYIQKFADRVTITADKSTSTAYMELSSLRSEDTAVYYCARLSDYVSGFGYWGQGTTVTVSS chain 2: DIQMTQSPSSLSASVGDRVTITCRASKDISKYLNWYQQKPGKAPKLLIYYTSGYHSGVPSRFSGSGSGTDFTLTISSLQPEDFATYYCQQGDALPPTFGGGTKVEIK ; retrieve measured patients with anti-drug antibodies.
8.7

// lookup patients with anti-drug antibodies for unnamed (protein) chain 1: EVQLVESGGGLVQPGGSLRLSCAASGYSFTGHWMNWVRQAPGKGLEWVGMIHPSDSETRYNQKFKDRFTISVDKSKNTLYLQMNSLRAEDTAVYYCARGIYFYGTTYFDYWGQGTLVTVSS chain 2: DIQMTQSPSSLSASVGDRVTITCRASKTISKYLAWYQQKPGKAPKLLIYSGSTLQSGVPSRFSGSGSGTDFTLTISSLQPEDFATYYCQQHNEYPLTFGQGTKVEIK
6.3

# lookup: patients with anti-drug antibodies of unnamed (protein) chain 1: QVQLQQSGAELVKPGASVKLSCKASGYTFRSYDINWVRQRPEQGLEWIGWIFPGDGSTKYNEKFKGKATLTTDKSSSTAYMQLSRLTSEDSAVYFCARWTVVGPGYFDVWGAGTTVTVSS chain 2: QIVLTQSPAIMSASPGEKVTITCSASSSVSYMNWFQQKPGTSPKLWIYSTSNLASGVPARFSGSGSGTSYSLTISRMEAEDAATYYCQQRSSYPNTFGGGTKLEIK
28
